Data origin, for the record: ChEMBL document CHEMBL3227985

# Tested on: Rattus norvegicus
# protocol_summary: Central dopamine receptor stimulating activity in reserpenized Sprague-Dawley rat assessed as duration of action of motor activity at 2 umol/kg, sc measured 6 hrs post-reserpine challenge by motility meter analysis
# Type: functional
observable: Time (min)
Give the value in min but do not write min after it.

Input line: Note down Time recorded for CCCN(CC(C)(C)C)C1CCc2c(O)cccc2C1.Cl (centres undefined)
Output line: 68

Input line: Hello, please tell me recorded Time for this one: Br.CCCCN(CCC)C1CCc2c(O)cccc2C1 (centres undefined)
Output line: 158

Input line: Please report the measured Time for CCCN(CC)C1CCc2c(cccc2OC)C1.Cl (centres undefined)
Output line: 96

Input line: Identify measured Time associated with Br.CCCN(C)C1CCc2c(O)cccc2C1 (centres undefined)
Output line: 73

Input line: Give reported Time value for CN1CCc2cccc3c2[C@H]1Cc1ccc(O)c(O)c1-3 [APOMORPHINE]
Output line: 60

Input line: Quote Time reported for CCCCCN(CCC)C1CCc2c(cccc2OC)C1.O=C(O)C(=O)O (centres undefined) please.
Output line: 93

Input line: Read off the recorded Time for Br.CCCN(CCC)C1CCc2c(O)cccc2C1 (centres undefined)
Output line: 127

====

The entries below are paired with their reported Time.
# System: Rattus norvegicus
# protocol_summary: Central dopamine receptor stimulating activity in reserpenized Sprague-Dawley rat assessed as duration of action of motor activity at 2 umol/kg, sc measured 6 hrs post-reserpine challenge by motility meter analysis
# Assay type: functional

Input line: Annotate the compound CCCN(CCc1ccccc1)C1CCc2c(O)cccc2C1.Cl (configuration not stated) with its measured Time.
Output line: 53 min

====

# System: Rattus norvegicus
# protocol_summary: Central dopamine receptor stimulating activity in Sprague-Dawley rat assessed as reduction in DOPA accumulation in limbic region of brain at 2 umol/kg, sc by spectrophotometric method
# Assay type: functional
# reported_conditions: Limbic system
Please note: ED50 exactly at 0.07 µmol/kg is NOT MET. Only values below 0.07 µmol/kg get MET.

Look over these answered cases.
- compound: "CCCNC1CCc2c(cccc2OC)C1.Cl (centres undefined)"
  classification: "NOT MET"
- compound: "Br.CCN(CC)C1CCc2c(O)cccc2C1 (centres undefined)"
  classification: "NOT MET"
- compound: "CCCN(CC)C1CCc2c(cccc2OC)C1.Cl (centres undefined)"
  classification: "MET"
- compound: "CCCN(CCC)C1CCc2c(ccc(OC)c2OC)C1.Cl (centres undefined)"
  classification: "MET"

Input line: Find out if reported ED50 for Br.CNC1CCc2c(O)cccc2C1 (centres undefined) is less than 0.07 µmol/kg
Output line: NOT MET

Input line: Threshold test, ED50 < 0.07 µmol/kg: Br.CCCN(C)C1CCc2c(O)cccc2C1 (centres undefined)
Output line: MET

Input line: Please indicate whether the reported ED50 of Br.CN(C)C1CCc2c(O)cccc2C1 (centres undefined) is strictly below 0.07 µmol/kg.
Output line: NOT MET

====

# Tested on: Rattus norvegicus
# protocol_summary: Central dopamine receptor stimulating activity in Sprague-Dawley rat assessed as reduction in DOPA accumulation in limbic region of brain at 2 umol/kg, sc by spectrophotometric method
# Format: functional
# reported_conditions: Limbic system
Kindly apply the following: 1 (yes) if ED50 is less than 0.2 µmol/kg, 0 (no) in every other case.

Completed entries (count: 3):
- molecule: "Br.CCCCCN(C)C1CCc2c(O)cccc2C1 (stereo unspecified)"
  classification: "0 (no)"
- molecule: "CCCCCN(CCC)C1CCc2c(O)cccc2C1.Cl (stereo unspecified)"
  classification: "1 (yes)"
- molecule: "CCCCN(CCC)C1CCc2c(cccc2OC)C1.Cl (stereo unspecified)"
  classification: "1 (yes)"

Input line: Find out if reported ED50 for Br.CCCN(CCC)C1CCc2c(ccc(O)c2O)C1 (stereo unspecified) is less than 0.2 µmol/kg
Output line: 1 (yes)

Input line: Quick check: does Br.CCCN(C(C)C)C1CCc2c(O)cccc2C1 (stereo unspecified) have ED50 under 0.2 µmol/kg?
Output line: 1 (yes)

Input line: # check: ED50 < 0.2 µmol/kg for Br.CCCN(CCC)C1CCc2c(O)cccc2C1 (stereo unspecified)
Output line: 1 (yes)

Input line: Would you kindly verify if ED50 of Br.CCCCNC1CCc2c(O)cccc2C1 (stereo unspecified) is strictly less than 0.2 µmol/kg?
Output line: 0 (no)

Input line: Would you kindly verify if ED50 of Br.Oc1cccc2c1CCC(N1CCCCC1)C2 (stereo unspecified) is strictly less than 0.2 µmol/kg?
Output line: 0 (no)

====

# Test system: Rattus norvegicus
# protocol_summary: Central noradrenaline receptor stimulating activity in Sprague-Dawley rat assessed as reduction in DOPA accumulation in hemispheral portion of cerebrum at 2 umol/kg, sc by spectrophotometric method
# Type: functional, organism-based
Activity calls are given as the source filed them. No cut-off for these calls is given here.
observable: Activity

Previously resolved entries follow.
- molecule: "Br.CCCN(CCC)C1CCc2c(ccc(O)c2O)C1 (stereo not drawn)"
  Activity: "inactive"
- molecule: "Br.CCCNC1CCc2c(O)cccc2C1 (stereo not drawn)"
  Activity: "inactive"
- molecule: "COc1cccc2c1CCC(NC(C)C)C2.Cl (stereo not drawn)"
  Activity: "inactive"
- molecule: "CCCN(CC(C)(C)C)C1CCc2c(cccc2OC)C1.Cl (stereo not drawn)"
  Activity: "inactive"
- molecule: "Br.CCCN(CCC)C1CCc2c(O)cccc2C1 (stereo not drawn)"
  Activity: "inactive"

Continue with the next molecule.
Input line: Hello, please tell me recorded Activity for this one: COc1cccc2c1CCC(N1CCCCC1)C2.Cl (stereo not drawn)
Output line: inactive

====

# System: Rattus norvegicus
# protocol_summary: Central dopamine receptor stimulating activity in reserpenized Sprague-Dawley rat assessed as duration of action of motor activity at 20 umol/kg, po administered via stomach tube measured 6 hrs post-reserpine challenge by motility meter analysis
# Type: functional
observable: Time
Could you write the number and then its unit?

- compound: "Br.CCCN(CC)C1CCc2c(O)cccc2C1 (stereo not given)"
  observable: "Time"
  result: "40 min"

Input line: Enter recorded Time with Rattus norvegicus for Br.CCCCN(CCC)C1CCc2c(O)cccc2C1 (stereo not given) here.
Output line: 117 min

Input line: Return reported Time for target or system Rattus norvegicus, item Br.CCCN(CCC)C1CCc2c(O)cccc2C1 (stereo not given) .
Output line: 121 min

Input line: Tell me Time of CN1CCc2cccc3c2[C@H]1Cc1ccc(O)c(O)c1-3 [APOMORPHINE] when tested on Rattus norvegicus.
Output line: 33 min

Input line: Report the value of Time obtained on Rattus norvegicus for Br.CCCCN(CC)C1CCc2c(O)cccc2C1 (stereo not given) .
Output line: 63 min

====

// Time lookup, one value per entry
# Test system: Rattus norvegicus
# protocol_summary: Central dopamine receptor stimulating activity in reserpenized Sprague-Dawley rat assessed as duration of action of motor activity at 2 umol/kg, sc measured 6 hrs post-reserpine challenge by motility meter analysis
# Type: functional
API: value field is a number in min; no unit string.

Example molecules with recorded Time:
- molecule: "Br.CCCN(C(C)C)C1CCc2c(O)cccc2C1 (configuration not stated)"
  unit_tag: "min"
  Time: 55
- molecule: "Br.CCCCN(CC)C1CCc2c(O)cccc2C1 (configuration not stated)"
  unit_tag: "min"
  Time: 118
- molecule: "Br.CCN(C)C1CCc2c(O)cccc2C1 (configuration not stated)"
  unit_tag: "min"
  Time: 31
- molecule: "Br.CCN(CC)C1CCc2c(O)cccc2C1 (configuration not stated)"
  unit_tag: "min"
  Time: 54
- molecule: "CCCCN(CCC)C1CCc2c(cccc2OC)C1.Cl (configuration not stated)"
  unit_tag: "min"
  Time: 106
- molecule: "CCCN(CCC)C1CCc2c(cccc2OC)C1.Cl (configuration not stated)"
  unit_tag: "min"
  Time: 122

Continue with the next molecule.
Input line: Give Time for Br.CCCN(CCC)C1CCc2c(ccc(O)c2O)C1 (configuration not stated) tested on Rattus norvegicus.
Output line: 193

====

# Tested on: Rattus norvegicus
# protocol_summary: Central dopamine receptor stimulating activity in reserpenized Sprague-Dawley rat assessed as duration of action of motor activity at 2 umol/kg, sc measured 6 hrs post-reserpine challenge by motility meter analysis
# Format: functional
# Time annotations
Please respond with the number in min and leave the unit unwritten.

Input line: Given Br.CCCN(CC)C1CCc2c(O)cccc2C1 (stereo unspecified) , respond with its Time.
Output line: 82

Input line: Return Time for the following compound: Br.CCNC1CCc2c(O)cccc2C1 (stereo unspecified)
Output line: 50

Input line: Give the reported Time for this compound. CCCN(C)C1CCc2c(cccc2OC)C1.Cl (stereo unspecified)
Output line: 69

Input line: Supply Time value. Item: Br.CCCNC1CCc2c(O)cccc2C1 (stereo unspecified)
Output line: 45

Input line: Hello, please tell me recorded Time for this one: CCCCCN(CCC)C1CCc2c(O)cccc2C1.Cl (stereo unspecified)
Output line: 75

Input line: Retrieve Time measured for CCCCN(CC)C1CCc2c(cccc2OC)C1.Cl (stereo unspecified) and print it.
Output line: 140
